# credit: the supplement of paper PMC9170038

- Tested on: K4 kissing-loop RNA reporter
- protocol_notes: apparent KD of K4 kissing-loop reporter; higher = weaker reporter binding
- cond: Eterna round: R107; input ligand: theophylline 20 uM
endpoint_name: apparent KD of K4 kissing-loop reporter (nM)

GCAUCCAUGGCAGGAUAUAGGUUCGUGGAGUGAUGUUCCAUAGCCCGAGUGAUGUUCGUUAUCCGCCUAGAAGGGCCAUGGAUGC [whbob_Ex_FMNB__2th213] = 219
AAACUUGCAGUGAUGUUGCAAGUAGGUGAUACCAGCAUCGAAAGAUGCCCUUGGCAGCACCAACACUGCAAGUAAGUAUCACCAA [(H1)-(H2)-(T1)-(T2)-(H)'-(T)'_Design1] = 161
AGAGGUCCCAGUGAUGUUGGUGCGUUUGGUCGAGGACCGGUACGGCCGCCACUCGUUCAUAGUAAGCCCUCUUUAGUGUUUCUAA [theeternabot_sameState_KL_Trp_A_9] = 551

###

- System: MS2 coat protein
- protocol_notes: apparent KD of MS2 coat protein; designed switch direction (-1 OFF switch, 1 ON switch): -1; higher = weaker reporter binding
- cond: input ligand: none
endpoint_name: apparent KD of MS2 coat protein

UAUGGUUAAGUCAGGAUAUGCUCAUAGAAGUCUAUGCAGAAGGGACAUGAGGAUCACCCAUGUAUGGUCGUGUU [Ex4 #65] (Eterna round: R97, puzzle: Brourd's mod of Exclusion 4) = 70.9 nM
ACGCAUUGCCAAAGGUAGUGCGUAACAUGAGGAUCACCCAUGUAGGAUAUGGUAGGCUUUGCUUACCAGAAGGACAUAAUAAUU [Mat - Exclusion NG 3 - Mod of JL - D4] (Eterna round: R96, puzzle: Exclusion NG 3) = 27.8 nM

###

- System: K4 kissing-loop RNA reporter;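 also: bound reporter read as fluorescence of individual clusters on recovered sequencing chips by microscopy, with normalized cluster intensities fitted with a binding model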
- protocol_notes: apparent KD of K4 kissing-loop reporter; higher = weaker reporter binding
- cond: Eterna round: R107; input ligand: none
endpoint_name: apparent KD of K4 kissing-loop reporter (nM)

AUAGGAGUGAUGUUCCUUAGUUUCUCCGAUACCAGUAUGGAAACAUACCCUUGGCAGCGGGAAACCGCUGAUUAGGAAACUAGUC [Theophylline A K4 7] = 282
UAGUAUAAUCUGUCGUUUACAAUAUUUAGUCAGGAUAUCGUAUAUUCGAGAAGGGACACUAUCUAGUGAUGUUAGAUAUUUCUUU [JR_ExcFMNA_Sub013] = 54.9
AGAGCGGUCGAAGGAUAUGAGACAACCAACGGUGAGUGAUGUUUGCCGAGUAAACCUCUAGUUGCGUCAGAAGGUCGGCUCAGUC [theeternabot_sameState_KL_FMN_B_25] = 633
AUUAUAUUGUGAAGGAGCGCGAAUAGCAGUGAUGUUGCUAUCAAACGAUAUAUUAUUUACACGCAGGUAGGUCGCACAAUAUAUA [JR_Nu_SSArginiB_Sub022] = 149
GCAAUCCCGGCGGCCGCCACUUUCAUACCAGUGAUGUUGAGUAGGAAAUGGAAUAUGCGCUGAAUAAGGACCGGGCCUAAGGAGA [theeternabot_exclusion_KL_Trp_B_47] = 251
AUGUCUGAUAGCAGUGAUGUUGCUUCGGAUACCAGACGAGAUCAUGUCCCUUGGCAGCUGACACGGCACGUGCUAGGUUAGAUGA [whbob_Ex_Theo_A_th72] = 115
AUGCGCGUGCGAUGAAAAUCGCACGCGCAUCGAGGACCGGUACGGCCGCCACUCGCUCGCGCCGAGUGAUGUUCGGCCGGCGAAC [#2 Same State - Tryptophan A Attempt #4 (HarryS)] = 267
UUACUACCCAGUGAUGUUGGGUAGCGGCGGCGAGGACCGGUACGGCCGCCACUCGGCGCACGGGAGUGAUGUUCCUACCGUUAGG [Same state Tryptophan A GF 8] = 604
CCAUCGCUAUUCGAUACCAGCUAAAUAUAAUAUAACCAGUGAUGUUGGUAUAUAAAUAUAAGCCCUUGGCAGCGAAUAGUGAUGG [Theophylline B K4 30] = 113
GCCGUACGCAUGGAUACCAGAUGGCACUAUUUUCUCCCAGAGUGAUGUUCUGGCCUGCCUAUCCCUUGGCAGCCAUGCGUACGGC = 800
GCGCGUGUUAAAGGAUAUAGCAGGUGAUACAAGAAAGUGAGUGAUGUUUAUGUAGAUGAUGAUAUGUUAGAAGGUUAACACGCGC [abcdefghijklmnopqr] = 966
GGCAGUGAUGUUGCCAGUGGCAGAUGCGAAGGAGCGCGGUGAGACGCAGGUAGGUCGCGCAUUGAAAUUGCUGUCACUAAAAUGC [#1] = 290
UUUCGUCUCUGAGGAUAUCAGACGAGAGUGAUGUUCUCCCAAAGCCCAGUGAUGUUGGAUGCUAUCUGAGAAGGCAGUGGGCGAA [Same State FMN B GF 12] = 554
GCUCAGGAGUGAUGUUCCUAGUGAUGUUAACGAGGACCGGUACGGCCGCCACUCGAUACGGCCGGACCGUAGGAUAAACUAGAGC [Same State - Tryptophan A (Freestyle 10)] = 261
GGGAGUAGUGCGGCCGCCACUGAGAAAGAAGAAGAAUAUAGUGAUGUUAUGUGGGAAAGGAAGAACAGGACCGGGCAUUAGAUUU [#21 K4 Tryptophan B Same State] = 488
UUGUUUUACUGAAGGAGCGGCAAUUGAUACGUAGAUAUAGUGAUGUUAUAUAAGAUAGAGAGCCAGGUAGGUCGCAGAUUUUUUU [ExArgB.V] = 144
UCCUGCAAUCUGCCACGAAAGUGGGUUGAUACCAGAGUCGAAAGACUCCCUUGGCAGCGAGUGAUGUUCGUUGCAGGUGAAUAAA [MatMod 9 - Jieux - Exclusion - Theophylline A] = 444
AGUGAUGUUGUGUUAUGUUAGGGAAGUGAUCGAGGACCGGUACGGCCGCCACUCGAGUGAUGAGUGAGUGAUGUUUGUUUAGGGA [yytmullin] = 1610
AGAGUACGAAAGUACUCCUCUACACACUGACGAGGACCGGUACGGCCGCCACUCGAGUUGAGUGAUGUUCGACAGUGUGUAGAGA [Omei KL Tryp A SS C v1] = 25.6
GGAAGACACCUGAGUGAUGUUCGGGUGUGCCGAGGACCGGUACGGCCGCCACUCGGGUGGUACAGUUACUGAUUGGACCGCUAUC [Arbirace] = 275
CCUUGAGAGUGAUGUUCUCGAGUGAAAGUCAAGGAUAUCCCGCGGUGGAGAAGGUGAUGGCGAACUUGACUGCUGUCAGUCCUAA [theeternabot_exclusion_KL_FMN_A_10] = 121
GAUUCUGUUCGAAAGAACGGAAUCACGGAAGGAGCGAGAGAAAUCUCAGGUAGGUCGCCGAAUUUUAGAUAGUGAUGUUAUCAUU [Arginine A K4 1] = 1080
UGAUACCAGACUGAUACCAGCGAGUGAUGUUUGCUGAAAUCAGGGUCAAAGACCCUGUCUCGCCCUUGGCAGCAGUCUGGUAUCU [TheoBX 21 #SwitchBubble #StaticStem] = 754
